Provide the recorded switch fluorescence ratio for the entries that follow.
Test system: ATP;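 further: ATP exposure 15 min at 22 °C before imaging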
Assay: switch fluorescence ratio, 500 uM ATP over buffer (Cy3 cluster intensity, sum of 5 cycles each) (fold (ratio)); higher = stronger signal-on switching upon ATP binding; sequences stand for … in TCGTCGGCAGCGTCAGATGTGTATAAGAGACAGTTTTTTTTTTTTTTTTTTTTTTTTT…TC
Conditions: aptamer strand: ATP DNA aptamer (quencher-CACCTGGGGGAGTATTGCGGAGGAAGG + anchor), 100 nM annealed; ATP concentration: 500 uM
// return just the number, without any unit appended

Fill in the blank: the reported switch fluorescence ratio of GGGTTGGTAG is ____. 0.984

Fill in the blank: the reported switch fluorescence ratio of TATAACCTGT is ____. 1.02

Fill in the blank: the reported switch fluorescence ratio of CCGTTGGTTT is ____. 0.994

Fill in the blank: the reported switch fluorescence ratio of AGAGAATGCG is ____. 1.02

Fill in the blank: the reported switch fluorescence ratio of CCTAGGTAAA is ____. 0.993

Fill in the blank: the reported switch fluorescence ratio of GCAGGAGGAA is ____. 0.991

Fill in the blank: the reported switch fluorescence ratio of ATTAGTAGAT is ____. 0.97

Fill in the blank: the reported switch fluorescence ratio of AAGTCATTTA is ____. 0.988

Fill in the blank: the reported switch fluorescence ratio of CAGTTACGAC is ____. 1.13

Fill in the blank: the reported switch fluorescence ratio of TTAAACCGCT is ____. 1.08

Fill in the blank: the reported switch fluorescence ratio of GAAGAATTAA is ____. 1.03

Fill in the blank: the reported switch fluorescence ratio of CATCGGATAT is ____. 1.04

Fill in the blank: the reported switch fluorescence ratio of GAGGGGCTAA is ____. 0.952

Fill in the blank: the reported switch fluorescence ratio of GGGTTGAAGT is ____. 0.985

Fill in the blank: the reported switch fluorescence ratio of GCAGTTTTTG is ____. 0.975

Fill in the blank: the reported switch fluorescence ratio of AAAATTGTGT is ____. 1.01

Fill in the blank: the reported switch fluorescence ratio of CCTCGGTAGG is ____. 1.02

Fill in the blank: the reported switch fluorescence ratio of GGCGGTAGAG is ____. 1.01

Fill in the blank: the reported switch fluorescence ratio of ATATATGGTG is ____. 1.05

Fill in the blank: the reported switch fluorescence ratio of TGTGATTTGA is ____. 0.976

Fill in the blank: the reported switch fluorescence ratio of AGTTGTATT is ____. 0.967

Fill in the blank: the reported switch fluorescence ratio of ACTATTTTTT is ____. 1

Fill in the blank: the reported switch fluorescence ratio of ATGCGCAGCG is ____. 1.04

Fill in the blank: the reported switch fluorescence ratio of GGCTTGCCTC is ____. 1.02

Fill in the blank: the reported switch fluorescence ratio of TCGGTCCCAG is ____. 1.03

Fill in the blank: the reported switch fluorescence ratio of GCCCATTGTG is ____. 1.2

Fill in the blank: the reported switch fluorescence ratio of CGAGGGCGGG is ____. 0.999

Fill in the blank: the reported switch fluorescence ratio of TTGGGGAATA is ____. 1.05

Fill in the blank: the reported switch fluorescence ratio of TTGACGACGG is ____. 1.01

Fill in the blank: the reported switch fluorescence ratio of TCATGGGCTT is ____. 1.01

Fill in the blank: the reported switch fluorescence ratio of GTTTTAGTTT is ____. 0.987

Fill in the blank: the reported switch fluorescence ratio of CGTCGGTTAG is ____. 1.01

Fill in the blank: the reported switch fluorescence ratio of CTGTTTGTAT is ____. 0.978

Fill in the blank: the reported switch fluorescence ratio of TGCCCTTGCG is ____. 0.983
